Experimental system: Cyclin-dependent kinase 1/cyclin B1 (Homo sapiens, UniProt P06493)
Sequence (P06493 whole entry): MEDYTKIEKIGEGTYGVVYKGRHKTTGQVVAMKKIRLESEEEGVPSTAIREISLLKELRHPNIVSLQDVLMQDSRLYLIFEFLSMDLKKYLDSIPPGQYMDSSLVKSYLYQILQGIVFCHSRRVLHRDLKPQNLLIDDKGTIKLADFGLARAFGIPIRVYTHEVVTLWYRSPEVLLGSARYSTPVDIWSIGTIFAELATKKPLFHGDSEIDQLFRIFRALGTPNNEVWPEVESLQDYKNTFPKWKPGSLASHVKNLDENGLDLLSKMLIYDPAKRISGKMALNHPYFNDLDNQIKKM
Sequence (P14635 whole entry, further chain): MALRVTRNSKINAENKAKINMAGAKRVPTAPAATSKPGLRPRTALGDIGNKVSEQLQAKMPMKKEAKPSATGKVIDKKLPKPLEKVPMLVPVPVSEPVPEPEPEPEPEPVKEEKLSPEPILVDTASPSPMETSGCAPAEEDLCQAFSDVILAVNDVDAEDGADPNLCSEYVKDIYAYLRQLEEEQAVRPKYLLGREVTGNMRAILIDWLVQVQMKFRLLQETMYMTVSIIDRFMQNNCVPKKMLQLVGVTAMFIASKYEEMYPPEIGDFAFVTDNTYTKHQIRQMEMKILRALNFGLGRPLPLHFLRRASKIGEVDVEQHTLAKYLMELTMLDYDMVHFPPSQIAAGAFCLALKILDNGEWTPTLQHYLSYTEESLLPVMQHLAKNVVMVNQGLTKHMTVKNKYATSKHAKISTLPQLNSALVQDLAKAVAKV
Type: protein-complex assay
Description: Inhibition of human CDK1/cyclin B1 (unknown origin)
I'd appreciate it if you could supply pIC50 values for the items below.
Give bare numbers, as −log10 of the molar value.

{"columns": ["Molecule smiles", "pIC50"],
 "data": [
  ["COc1ccc(Nc2nccc(-c3ccc4nc(C)n(C(C)C)c4c3)n2)cc1", 8.40]
]}

Batch request: pIC50 for each of the following compounds.
1. Cc1nc2ccc(-c3ccnc(Nc4ccc(CN5CCN(C(C)C)CC5)cn4)n3)cc2n1C(C)C
2. Cc1nc2ccc(-c3ccnc(Nc4ccc(N5CCNCC5)cn4)n3)cc2n1C(C)C

Reply:
1. 6.00
2. 6.65

Reference for the values: ChEMBL document CHEMBL3603804
